Entries and their measured IC50 follow.
# Target System: Arachidonate 12-lipoxygenase (Sus scrofa, UniProt P16469)
# Sequence (P16469 whole entry): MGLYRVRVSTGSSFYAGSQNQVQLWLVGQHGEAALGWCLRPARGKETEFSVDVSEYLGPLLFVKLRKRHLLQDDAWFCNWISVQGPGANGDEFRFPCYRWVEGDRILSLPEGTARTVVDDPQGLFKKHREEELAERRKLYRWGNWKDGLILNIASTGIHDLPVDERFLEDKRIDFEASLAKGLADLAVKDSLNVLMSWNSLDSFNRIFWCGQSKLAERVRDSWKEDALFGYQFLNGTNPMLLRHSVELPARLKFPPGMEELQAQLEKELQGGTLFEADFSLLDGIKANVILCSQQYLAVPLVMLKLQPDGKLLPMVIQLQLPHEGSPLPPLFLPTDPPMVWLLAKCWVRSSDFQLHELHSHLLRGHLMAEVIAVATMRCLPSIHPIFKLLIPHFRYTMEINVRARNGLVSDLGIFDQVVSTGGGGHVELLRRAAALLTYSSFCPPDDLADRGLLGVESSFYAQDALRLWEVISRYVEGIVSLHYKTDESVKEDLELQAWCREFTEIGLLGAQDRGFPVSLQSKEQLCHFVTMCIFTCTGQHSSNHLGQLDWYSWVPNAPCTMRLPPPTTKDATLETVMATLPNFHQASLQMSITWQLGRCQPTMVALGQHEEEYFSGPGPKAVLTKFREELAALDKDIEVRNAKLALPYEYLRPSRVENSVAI
Outcome Measure: IC50 (nM)

• CCCCCCCCC#CCOCc1cccc(CCC(=O)O)c1 = 10000
• CCCCCCCCCCC#CCOCc1cccc(CCC(=O)O)c1 = 320
• CCCCCCCCCCC#CCOCc1ccc(CC(=O)O)cc1 = 50
• CCCCCCCCCC/C=C\COCc1ccc(CCC(=O)O)cc1 = 2500

---

Let's go through some IC50 measurements on Arachidonate 12-lipoxygenase (Sus scrofa) together.
Outcome Measure: IC50

* CCCCCCC#CCOCc1cccc(CCC(=O)O)c1 | > 10 µM
* CCCCCC#CCCOCc1cccc(CCC(=O)O)c1 | > 10 µM
* CCCCCCCCCCCCCCC#CCOCc1ccc(C(=O)O)cc1 | > 10 µM
